- TARGET: GST-tagged truncated human mutant G2019S LRRK2 (Homo sapiens (Human), UniProt Q5S007, G2019S)
- Sequence (Q5S007 970-2527 G2019S): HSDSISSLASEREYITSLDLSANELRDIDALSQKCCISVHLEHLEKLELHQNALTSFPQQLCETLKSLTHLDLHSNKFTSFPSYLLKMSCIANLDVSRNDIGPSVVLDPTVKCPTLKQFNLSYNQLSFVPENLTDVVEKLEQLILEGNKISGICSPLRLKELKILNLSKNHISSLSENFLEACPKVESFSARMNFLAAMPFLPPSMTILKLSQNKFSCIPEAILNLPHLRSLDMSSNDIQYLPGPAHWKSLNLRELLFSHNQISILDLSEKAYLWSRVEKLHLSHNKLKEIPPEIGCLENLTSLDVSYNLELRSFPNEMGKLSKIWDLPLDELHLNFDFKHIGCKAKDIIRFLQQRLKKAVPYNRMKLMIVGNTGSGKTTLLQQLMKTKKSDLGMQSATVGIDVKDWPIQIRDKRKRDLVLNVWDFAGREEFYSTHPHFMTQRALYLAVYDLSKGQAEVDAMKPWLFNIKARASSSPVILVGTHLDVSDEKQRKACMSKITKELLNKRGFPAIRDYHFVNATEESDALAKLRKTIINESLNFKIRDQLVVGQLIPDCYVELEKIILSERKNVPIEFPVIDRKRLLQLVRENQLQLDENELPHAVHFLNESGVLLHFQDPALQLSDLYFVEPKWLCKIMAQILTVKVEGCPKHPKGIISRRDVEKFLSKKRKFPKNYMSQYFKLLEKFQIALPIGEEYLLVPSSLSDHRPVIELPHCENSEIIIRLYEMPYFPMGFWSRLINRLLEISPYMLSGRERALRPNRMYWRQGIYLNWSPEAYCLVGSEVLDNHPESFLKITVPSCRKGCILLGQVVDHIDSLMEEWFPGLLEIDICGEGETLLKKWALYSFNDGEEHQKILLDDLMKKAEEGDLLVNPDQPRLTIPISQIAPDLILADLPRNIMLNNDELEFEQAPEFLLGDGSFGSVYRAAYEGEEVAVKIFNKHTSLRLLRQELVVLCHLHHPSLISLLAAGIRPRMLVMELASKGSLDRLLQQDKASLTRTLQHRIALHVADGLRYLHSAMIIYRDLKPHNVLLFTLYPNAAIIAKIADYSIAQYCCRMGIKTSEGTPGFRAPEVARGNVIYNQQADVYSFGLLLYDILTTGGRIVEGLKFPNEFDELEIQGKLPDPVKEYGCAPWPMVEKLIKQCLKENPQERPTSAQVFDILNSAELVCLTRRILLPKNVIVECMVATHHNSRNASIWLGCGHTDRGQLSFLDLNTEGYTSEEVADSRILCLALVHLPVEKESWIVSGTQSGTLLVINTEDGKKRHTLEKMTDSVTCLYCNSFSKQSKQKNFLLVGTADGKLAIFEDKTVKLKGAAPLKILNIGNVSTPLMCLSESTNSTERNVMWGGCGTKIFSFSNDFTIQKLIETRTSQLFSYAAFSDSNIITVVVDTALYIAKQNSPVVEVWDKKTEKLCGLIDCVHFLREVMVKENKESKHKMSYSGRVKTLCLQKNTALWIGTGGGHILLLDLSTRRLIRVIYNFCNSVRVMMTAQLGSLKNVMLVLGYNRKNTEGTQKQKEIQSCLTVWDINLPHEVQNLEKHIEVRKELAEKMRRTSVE
- PROCEDURE DETAILS: LRRK2 G2019S Km ATP LanthaScreen Assay
- CONDITION PARAMETERS: 134 μM ATP (Km ATP); fluorescein-labeled LRRKtide substrate; mean IC50 values
pIC50: −log10 of the molar value.

# COMPOUND, pIC50
measured = [
    ("CC(C)(O)[C@@H]1CCN(c2cc(-n3ncc4ccc([C@]5(C#N)CC56CC6)cc43)ccn2)C1 [Example 6.2-2]", 9.05),
    ("N#C[C@@]1(c2ccc3cnn(-c4cc(N5CC(O)C6(CC6)C5)ncn4)c3c2)CC12CC2 (single isomer, unassigned) [Example 3.11-2]", 8.85),
    ("CNc1nc(N2CC[C@H](C(F)F)C2)cc(-n2ncc3ccc(C4(C#N)CC45CC5)cc32)n1 (single isomer, unassigned) [Example 2.8-1]", 9.15),
    ("CC(C)(O)[C@@H]1CCN(c2cc(-n3ncc4ccc([C@@]5(C#N)CC56CC6)cc43)ccn2)C1 [Example 6.2-1]", 8.74),
    ("CC(C)(O)[C@@H]1CCN(c2cc(-n3ncc4ccc(C5(C#N)CC56CC6)cc43)ncn2)C1 (single isomer, unassigned) [Example 1.4-1]", 9.00),
    ("C[C@H]1CN(c2cc(-n3ncc4ccc([C@]5(C#N)CC56CC6)cc43)cc(F)n2)CCN1C1COC1 [Example 6.4]", 8.17),
    ("C[C@H]1CN(c2cc(-n3ncc4ccc([C@]5(C#N)CC56CC6)cc43)ncn2)CCN1C1CCOC1 (stereo partly shown) [Example 3.8-4]", 9.22),
    ("Cc1nc(N2CC3(C(C)(C)O)CC2C3)cc(-n2ncc3cc(F)c(C4(C#N)CC45CC5)cc32)n1 (single isomer, unassigned) [Example 5.6-1]", 7.68),
    ("CC(C)(O)C1CN(c2cc(-n3ncc4ccc([C@]5(C#N)CC56CC6)cc43)ncn2)CCO1 (single isomer, unassigned) [Example 4.3-1]", 8.74),
    ("Cc1cc(-n2ncc3ccc([C@]4(C#N)CC45CC5)cc32)nc(N)n1 [Example 4.19]", 9.22),
    ("Cc1nc(N2CC3(C(C)(C)O)CC2C3)cc(-n2ncc3c(F)cc(C4(C#N)CC45CC5)cc32)n1 (stereo not shown) [Example 4.16]", 9.22),
    ("COC1(C(C)(C)O)CCN(c2cc(-n3ncc4ccc([C@@]5(C#N)CC56CC6)cc43)ncn2)C1 (single isomer, unassigned) [Example 3.10-1]", 7.82),
    ("N#C[C@]1(c2ccc3cnn(-c4cc(N5CC(O)C6(CC6)C5)ncn4)c3c2)CC12CC2 (single isomer, unassigned) [Example 3.11-1]", 8.17),
]

---

- TARGET: GST-tagged truncated human mutant G2019S LRRK2 (Homo sapiens (Human), UniProt Q5S007, G2019S)
- PROCEDURE DETAILS: LRRK2 G2019S Km ATP LanthaScreen Assay
- CONDITION PARAMETERS: 134 μM ATP (Km ATP); fluorescein-labeled LRRKtide substrate; mean IC50 values
pIC50: −log10 of the molar value.
# pIC50 values compiled below

# COMPOUND, pIC50
records = [
    ("C[C@@H]1CN(c2cc(-n3ncc4cnc(C5(C#N)CC56CC6)cc43)ncn2)C[C@H](C)[C@]1(C)O (single isomer, unassigned) [Example 5.4-1]", 7.82),
    ("CC1(O)CN(c2cc(-n3ncc4ccc([C@]5(C#N)CC56CC6)cc43)ncn2)C1", 8.89),
    ("COc1nc(N2C[C@@H](C)[C@@](C)(O)[C@@H](C)C2)cc(-n2ncc3ccc([C@]4(C#N)CC45CC5)cc32)n1", 8.82),
    ("N#C[C@@]1(c2ccc3cnn(-c4cc(C5CC5)ncn4)c3c2)CC12CC2", 8.19),
    ("CC(C)(O)[C@@H]1CCN(c2cc(-n3ncc4cnc(C5(C#N)CC56CC6)cc43)ncn2)C1 (single isomer, unassigned) [Example 5.3-2]", 9.15),
    ("Cc1cc(-n2ncc3ccc([C@]4(C#N)CC45CC5)cc32)nc(C2CC2)n1", 8.49),
    ("C[C@H]1CN(c2cc(-n3ncc4ccc([C@@]5(C#N)CC56CC6)cc43)ncn2)CCN1C1CCOC1 (single isomer, unassigned) [Example 3.8-2]", 9.10),
]

---

- TARGET: GST-tagged truncated human mutant G2019S LRRK2 (Homo sapiens (Human), UniProt Q5S007, G2019S)
- PROCEDURE DETAILS: LRRK2 G2019S Km ATP LanthaScreen Assay
- CONDITION PARAMETERS: 134 μM ATP (Km ATP); fluorescein-labeled LRRKtide substrate; mean IC50 values
# log10 IC50 values compiled below
READOUT: log10 IC50 (log10 of the value in nM)

# COMPOUND, log10 IC50
rows = [
    ("COCc1nc(N2CCN(C3COC3)[C@@H](C)C2)cc(-n2ncc3ccc([C@]4(C#N)CC45CC5)cc32)n1", -0.15),
    ("Cc1nc(N2C[C@@H]3C[C@H]2CN3C2(C)COC2)cc(-n2ncc3ccc([C@]4(C#N)CC45CC5)cc32)n1", 0.93),
    ("COCc1nc(N2CC(OC)C2)cc(-n2ncc3ccc([C@]4(C#N)CC45CC5)cc32)n1", 0.41),
    ("C[C@@H]1CN(c2cc(-n3ncc4cnc(C5(C#N)CC56CC6)cc43)ncn2)C[C@H](C)[C@]1(C)O (single isomer, unassigned) [Example 5.4-2]", 0.41),
    ("CC(C)(O)[C@@H]1CN(c2cc(-n3ncc4ccc([C@]5(C#N)CC56CC6)cc43)ncn2)C[C@@H]1F", -0.22),
    ("CC(C)(O)C12CC(C1)N(c1cc(-n3ncc4ccc(C5(C#N)CC56CC6)cc43)cnn1)C2 (single isomer, unassigned) [Example 10.3-2]", 1.19),
    ("CC1C(C(C)(C)O)CCN1c1cc(-n2ncc3ccc([C@]4(C#N)CC45CC5)cc32)ncn1 (single isomer, unassigned) [Example 3.5-8]", 0.04),
    ("CNc1nc(N2CC3(C(C)(C)O)CC2C3)cc(-n2ncc3ccc(C4(C#N)CC45CC5)cc32)n1 (single isomer, unassigned) [Example 2.7-1]", 0.48),
    ("CC(C)(O)[C@@H]1CCN(c2cc(-n3ncc4cnc(C5(C#N)CC56CC6)cc43)ncn2)C1 (single isomer, unassigned) [Example 5.3-1]", 0.88),
    ("CC1CN(c2cc(-n3ncc4ccc([C@@]5(C#N)CC56CC6)cc43)ncn2)CC1C(C)(C)O (single isomer, unassigned) [Example 3.6-1]", 0.34),
    ("CC(C)(O)[C@@H]1CCN(c2cc(-n3ncc4cc(F)c(C5(C#N)CC56CC6)cc43)ncn2)C1 (single isomer, unassigned) [Example 5.7-1]", 1.34),
    ("CC1C(C(C)(C)O)CCN1c1cc(-n2ncc3ccc([C@@]4(C#N)CC45CC5)cc32)ncn1 (single isomer, unassigned) [Example 3.5-4]", -0.22),
    ("C[C@H]1CN(c2cc(-n3ncc4ccc([C@]5(C#N)CC56CC6)cc43)ccn2)CCN1S(C)(=O)=O", 0.18),
    ("N#C[C@]1(c2ccc3cnn(-c4cc(N5CC(O)C6(CC6)C5)ncn4)c3c2)CC12CC2 (single isomer, unassigned) [Example 3.11-3]", 0.80),
    ("CC1C(C(C)(C)O)CCN1c1cc(-n2ncc3ccc([C@]4(C#N)CC45CC5)cc32)ncn1 (single isomer, unassigned) [Example 3.5-2]", 1.50),
    ("CC(C)(O)C12CC(C1)N(c1cc(-n3ncc4cnc(C5(C#N)CC56CC6)cc43)ccn1)C2 (single isomer, unassigned) [Example 6.7-2]", 0.89),
    ("CNc1nc(N2CC[C@H](C(F)F)C2)cc(-n2ncc3ccc(C4(C#N)CC45CC5)cc32)n1 (single isomer, unassigned) [Example 2.8-2]", 0.04),
    ("CNc1nc(N2CC[C@@H](C(C)(C)O)C2)cc(-n2ncc3ccc(C4(C#N)CC45CC5)cc32)n1 (stereo partly drawn)", -0.10),
    ("COCc1nc(N2CC3(C(C)(C)O)CC2C3)cc(-n2ncc3ccc(C4(C#N)CC45CC5)cc32)n1 (single isomer, unassigned) [Example 2.3-1]", 0.04),
    ("COCc1nc(N2CC3(C(C)(C)O)CC2C3)cc(-n2ncc3ccc(C4(C#N)CC45CC5)cc32)n1 (single isomer, unassigned) [Example 2.3-2]", 0.08),
    ("CC1C(C(C)(C)O)CCN1c1cc(-n2ncc3ccc([C@@]4(C#N)CC45CC5)cc32)ncn1 (single isomer, unassigned) [Example 3.5-1]", 2.09),
    ("C[C@@H]1CN(c2cc(-n3ncc4ccc([C@]5(C#N)CC56CC6)cc43)ncn2)CCN1C1COC1", -0.22),
    ("CC1C(C(C)(C)O)CCN1c1cc(-n2ncc3ccc([C@@]4(C#N)CC45CC5)cc32)ncn1 (single isomer, unassigned) [Example 3.5-5]", 1.44),
    ("CC(C)(O)C12CC(C1)N(c1cc(-n3ncc4cnc(C5(C#N)CC56CC6)cc43)ncn1)C2 (single isomer, unassigned) [Example 5.2-2]", 0.23),
]
